experiment notes: qHTS assay to identify small molecule inhibitors of chordoma cells - UCH-1 (AID 1259355); further: nearly all actives have a fitted effect of over 55% in size
experimental context: UCH-1 chordoma viability, CellTiter-Glo, 48 h, combination, with auranofin plus four topoisomerase inhibitors; series mostly up to 46.1 µM
Results filed as inconclusive are left out. Activity calls are given as the source filed them. The call rests on the fitted dose curve; in most records, active means well fitted cell-killing curve with a large enough effect; inconclusive means small, poorly fitted or top-dose-only effect, or effect the other way; inactive means no such curve, though single readings can be large or run the other way.
Labels: yes (1) = active, no (0) = inactive

- compound: "COc1ccc(CN(CCN(C)C)c2ccccn2)cc1"
  answer label: "no (0)"
- compound: "CCO/C([O-])=N/c1c[n+](N2CCOCC2)no1"
  answer label: "no (0)"
- compound: "CCn1cc(C(=O)O)c(=O)c2cc3c(cc21)OCO3"
  answer label: "no (0)"
- compound: "CC[N+](C)(C)c1cccc(O)c1"
  answer label: "no (0)"
- compound: "CC(C)(Oc1ccc(CCNC(=O)c2ccc(Cl)cc2)cc1)C(=O)O"
  answer label: "no (0)"
- compound: "CC(C)(C)NCC(O)c1cc(O)cc(O)c1 (stereo unspecified)"
  answer label: "no (0)"
- compound: "Brc1c(NC2=NCCN2)ccc2nccnc12"
  answer label: "no (0)"
- compound: "C[C@@H](O)[C@H]1C(=O)N2C(C(=O)O)=C(SCCN=CN)C[C@H]12"
  answer label: "no (0)"
- compound: "CN1C(=O)CC[C@H]1c1cccnc1"
  answer label: "no (0)"
- compound: "O=C(CCCN1CCC(O)(c2cccc(C(F)(F)F)c2)CC1)c1ccc(F)cc1"
  answer label: "no (0)"
- compound: "CCCCNC(=O)NS(=O)(=O)c1ccc(C)cc1"
  answer label: "no (0)"
- compound: "CCCCCCCC/C=C\\CCCCCCCC(=O)NCc1ccc(O)c(OC)c1"
  answer label: "no (0)"
- compound: "COC(=O)C1=C(C)NC(C)=C(C(=O)OC(C)(C)CN(C)CCC(c2ccccc2)c2ccccc2)C1c1cccc([N+](=O)[O-])c1 (stereo unspecified)"
  answer label: "no (0)"
- compound: "CN(C)CCCN1c2ccccc2Sc2ccccc21"
  answer label: "no (0)"
- compound: "CN(C)CC/C=C1\\c2ccccc2COc2ccccc21"
  answer label: "no (0)"
- compound: "C[N+](C)(C)CCOC(=O)CCC(=O)OCC[N+](C)(C)C"
  answer label: "no (0)"
- compound: "CC(=O)[C@]1(O)Cc2c(O)c3c(c(O)c2[C@@H](O[C@H]2C[C@H](N)[C@H](O)[C@H](C)O2)C1)C(=O)c1ccccc1C3=O"
  answer label: "yes (1)"
- compound: "NS(=O)(=O)c1cc2c(cc1Cl)NC(C1CC3C=CC1C3)NS2(=O)=O (stereo unspecified)"
  answer label: "no (0)"
- compound: "N[C@@H](COP(=O)(O)O)C(=O)O"
  answer label: "no (0)"
- compound: "Cc1ccc(S(=O)(=O)NC(=O)NN2CCCCCC2)cc1"
  answer label: "no (0)"
- compound: "OCCN1CCN(CC/C=C2/c3ccccc3Sc3ccc(C(F)(F)F)cc32)CC1"
  answer label: "no (0)"
- compound: "CNCCCN1c2ccccc2CCc2ccccc21"
  answer label: "no (0)"
- compound: "O=C(O)CCCCCCCC(=O)O"
  answer label: "no (0)"
- compound: "CCOC(=O)c1cnc2c(cnn2CC)c1NN=C(C)C"
  answer label: "no (0)"
- compound: "Cc1cc(C)c(/C=C2\\C(=O)Nc3ccccc32)[nH]1"
  answer label: "no (0)"
- compound: "NCCCNCCSP(=O)(O)O"
  answer label: "no (0)"
- compound: "NC1=NCC2c3ccccc3Cc3ccccc3N12 (stereo unspecified)"
  answer label: "no (0)"
- compound: "C[C@]12CC[C@@H]3c4ccc(O)cc4C[C@@H](CCCCCCCCCS(=O)CCCC(F)(F)C(F)(F)F)[C@H]3[C@@H]1CC[C@@H]2O (stereo partly specified)"
  answer label: "no (0)"
- compound: "Cc1ccc(=O)n(-c2ccccc2)c1"
  answer label: "no (0)"
- compound: "CCOC(=O)C1=C(C)NC(C)=C(C(=O)OC)C1c1cccc([N+](=O)[O-])c1 (stereo unspecified)"
  answer label: "no (0)"
- compound: "CN(C)CCN(Cc1cccs1)c1ccccn1"
  answer label: "no (0)"
- compound: "CO[C@@]1(NC(=O)CSCC#N)C(=O)N2C(C(=O)O)=C(CSc3nnnn3C)CS[C@@H]21"
  answer label: "no (0)"
- compound: "COc1ccc2c(c1OC)C(=O)O[C@@H]2[C@H]1c2c(cc3c(c2OC)OCO3)CCN1C"
  answer label: "no (0)"
- compound: "O=C(O)CN(CCOCCOCCN(CC(=O)O)CC(=O)O)CC(=O)O"
  answer label: "no (0)"
- compound: "CCN(CC)CCNC(=O)c1cc(S(C)(=O)=O)ccc1OC"
  answer label: "no (0)"
- compound: "COC(=O)[C@@H](N)Cc1ccc(O)c(O)c1"
  answer label: "no (0)"
- compound: "NC(=O)c1ncn([C@@H]2O[C@H](CO)[C@@H](O)[C@H]2O)c1O"
  answer label: "no (0)"
- compound: "Cc1ccc(Cl)c(Nc2ccccc2C(=O)O)c1Cl"
  answer label: "no (0)"
- compound: "CCN(CC)CCNC(=O)c1ccc(NC(C)=O)cc1"
  answer label: "no (0)"
- compound: "c1cnc(N2CCN(Cc3ccc4c(c3)OCO4)CC2)nc1"
  answer label: "no (0)"
- compound: "COC(=O)[C@H]1[C@H]2C[C@@H]3c4[nH]c5cc(OC)ccc5c4CCN3C[C@H]2C[C@@H](OC(=O)c2cc(OC)c(OC)c(OC)c2)[C@@H]1OC"
  answer label: "no (0)"
- compound: "CC(=O)Nc1nnc(S(N)(=O)=O)s1"
  answer label: "no (0)"
- compound: "CN(C)CCCN1c2ccccc2Sc2ccc(C(F)(F)F)cc21"
  answer label: "no (0)"
- compound: "CCCCNc1ccc(C(=O)OCCN(C)C)cc1"
  answer label: "no (0)"
- compound: "OC(CCN1CCCCC1)(c1ccccc1)C1CCCCC1 (stereo unspecified)"
  answer label: "no (0)"
- compound: "CN/C(=C\\[N+](=O)[O-])NCCSCc1ccc(CN(C)C)o1"
  answer label: "no (0)"

###

target or test system: Papain (Carica papaya) (UniProt P00784)
Sequence (P00784 whole entry, looked up): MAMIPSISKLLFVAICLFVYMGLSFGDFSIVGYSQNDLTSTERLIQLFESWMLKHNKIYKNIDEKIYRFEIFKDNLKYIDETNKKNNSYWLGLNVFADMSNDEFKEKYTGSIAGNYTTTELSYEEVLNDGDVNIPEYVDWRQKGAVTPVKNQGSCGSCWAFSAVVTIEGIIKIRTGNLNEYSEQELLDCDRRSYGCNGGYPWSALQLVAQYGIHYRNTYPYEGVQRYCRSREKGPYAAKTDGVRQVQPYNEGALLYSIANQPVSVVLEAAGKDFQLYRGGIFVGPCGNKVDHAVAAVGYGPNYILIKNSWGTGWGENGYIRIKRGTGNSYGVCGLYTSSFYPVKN
experiment notes: Primary qHTS assay for inhibitors of the protease papain (AID 1645873);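 further: papain turnover of Z-FR-AMC read as the AMC fluorescence gain over 10 min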
experimental context: papain Z-FR-AMC cleavage, AMC fluorescence; series mostly up to 49.8 µM
Results filed as inconclusive are left out. The source made the active and inactive calls. Calls follow the shape of the dose curve; as a rule, active = well fitted inhibition curve with a large enough effect; inconclusive = small, poorly fitted or top-dose-only effect; inactive = no such curve, though single readings can be large or run the other way.

- compound: "CCN(Cc1ccncc1)C(=O)C(CO)c1ccccc1 (stereo unspecified)"
  outcome: "inactive"
- compound: "COCCOC(=O)C1=C(C)NC(C)=C(C(=O)OC(C)C)C1c1cccc([N+](=O)[O-])c1 (stereo unspecified)"
  outcome: "inactive"
- compound: "Cc1scc2c1N(C(=O)CN1CCN(C)CC1)c1ccccc1NC2=O"
  outcome: "inactive"
- compound: "COc1ccc2c(c1OC)C(=O)O[C@@H]2[C@H]1c2c(cc3c(c2OC)OCO3)CCN1C"
  outcome: "inactive"
- compound: "C[N+](C)(C)CCOC(=O)CCC(=O)OCC[N+](C)(C)C"
  outcome: "inactive"
- compound: "COc1ccc(CCN(C)CCCC(C#N)(c2cc(OC)c(OC)c(OC)c2)C(C)C)cc1OC (stereo unspecified)"
  outcome: "inactive"
- compound: "N[C@@H](COP(=O)(O)O)C(=O)O"
  outcome: "inactive"
- compound: "CN(C)CC/C=C1\\c2ccccc2COc2ccccc21"
  outcome: "inactive"
- compound: "CCCCNc1ccc(C(=O)OCCN(C)C)cc1"
  outcome: "inactive"
- compound: "OC(CCN1CCCCC1)(c1ccccc1)C1CCCCC1 (stereo unspecified)"
  outcome: "inactive"
- compound: "CCCN(CCC)CCc1cccc2c1CC(=O)N2"
  outcome: "inactive"

###

System: CP203
experiment notes: qHTS profiling for inhibitors of Plasmodium falciparum proliferation (AID 504749); further: nearly all actives have a fitted effect of over 60% in size
experimental context: P. falciparum in erythrocytes, SYBR Green DNA, 72 h; series mostly up to 28.7 µM
Records with an inconclusive call do not appear. The source made the active and inactive calls. The call rests on the fitted dose curve; in most records, active means well fitted inhibition curve with a large enough effect; inconclusive means small, poorly fitted or top-dose-only effect; inactive means flat fitted curve, though single readings scatter.
Classes used: Y = active, N = inactive

- molecule: "CCN(CC)CCNC(=O)c1ccc(NC(C)=O)cc1"
  answer label: "N"
- molecule: "COC(=O)C1=C(C)NC(C)=C(C(=O)OC(C)(C)CN(C)CCC(c2ccccc2)c2ccccc2)C1c1cccc([N+](=O)[O-])c1 (configuration not stated)"
  answer label: "Y"
- molecule: "OCCN1CCN(CC/C=C2/c3ccccc3Sc3ccc(C(F)(F)F)cc32)CC1"
  answer label: "Y"
- molecule: "CCN(CC)CC(=O)Nc1c(C)cccc1C"
  answer label: "N"
- molecule: "COc1ccc([C@@H]2Sc3ccccc3N(CCN(C)C)C(=O)[C@@H]2OC(C)=O)cc1"
  answer label: "N"
- molecule: "CC(C)NNC(=O)c1ccncc1"
  answer label: "N"
- molecule: "OCCN1CCN(CCCN2c3ccccc3C=Cc3ccccc32)CC1"
  answer label: "Y"
- molecule: "CC1=C(C)C(=O)C(CCCCC#CCCCC#CCO)=C(C)C1=O"
  answer label: "Y"
- molecule: "CCNC(=O)N1CCN(CCCC(c2ccc(F)cc2)c2ccc(F)cc2)CC1"
  answer label: "Y"
- molecule: "Cc1cc(C)c(/C=C2\\C(=O)Nc3ccccc32)[nH]1"
  answer label: "N"
- molecule: "CC(N=C(NC#N)Nc1ccncc1)C(C)(C)C (configuration not stated)"
  answer label: "N"
- molecule: "NC(=O)c1cn(Cc2c(F)cccc2F)nn1"
  answer label: "N"
